molecular target: T1, VEGFR-2-Fc (UniProt P35968 20-322); assay: receptor-Fc IP
T1 construct: domain: first 3 Ig domains; conditioned supernatant of 293T cells; also called VEGFR-2-Fc fusion protein; not shown: Fc fragment of the pIg vector
T1 sequence (P35968 20-322): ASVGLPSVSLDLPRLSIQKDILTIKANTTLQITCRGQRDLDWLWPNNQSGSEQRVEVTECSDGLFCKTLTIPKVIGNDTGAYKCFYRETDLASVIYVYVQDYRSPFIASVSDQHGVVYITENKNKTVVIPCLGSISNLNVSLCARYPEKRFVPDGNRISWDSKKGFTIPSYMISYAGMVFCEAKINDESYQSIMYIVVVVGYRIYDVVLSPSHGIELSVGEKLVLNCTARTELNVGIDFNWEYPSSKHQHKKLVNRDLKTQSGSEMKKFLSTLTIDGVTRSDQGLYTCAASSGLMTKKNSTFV
assay readout: binding result

>>> observed_result("82-11 (ligand, clone entry) AHYNTEILKFMDVYQRSYCHPIETLVDIFQEFGVATNTFFKPPCVSVYRCGGCCNSEGLQCVPTEESNITMQIMRITVPLSQGPKPVTISFLQHNKCECRPKKDL")
"binds"
>>> observed_result("32-16 (ligand) GQNHHEVVKSIDNEWRKTQCMPIETLVDIFQEFGVATNTFFKPPCVSVYRCGGCCNSEGLQCMNTSTSYLSKTLFEITVPLSQGPKPVTISFANHTSCRCMSKLD")
"no binding"
>>> observed_result("24-3 (ligand) AHYNTEILKSIDNEWRKTQCMPREVCIDVGKEFGVATNTFFKPSCVPLMRCGGCCNSEGLQCVPTEESNITMQIMRIKPHQGQHIGEMSFLQHNKCECRPKKD")
"no binding"
>>> observed_result("23-8 (ligand) AHYNTEILKSIDNEWRKTQCMPREVCIDVGKEYPDEIEYIFKPPCVSVYRCGGCCNSEGLQCMNTSTSYLSKTLFEIKPHQGQHIGEMSFANHTSCRCMSKLD")
"no binding"
>>> observed_result("53-14 (ligand) AHYNTEILKSIDNEWRKTQCMPIETLVDIFQEYPDEIEYIFKPPCVSVYRCGGCCNDEGLECMNTSTSYLSKTLFEITVPLSQGPKPVTISFANHTSCRCMSKLD")
"no binding"
>>> observed_result("42-16 (ligand) AHYNTEILKFMDVYQRSYCHPREVCIDVGKEFGVATNTFFKPPCVSVYRCGGCCNSEGLQCMNTSTSYLSKTLFEITVPLSQGPKPVTISFANHTSCRCMSKLD")
"no binding"
>>> observed_result("22-13 (ligand) AHYNTEILKSIDNEWRKTQCMPREVCIDVGKEFGVATNTFFKPPCVSVYRCGGCCNDEGLECVPTEESNITMQIMRITVPLSQGPKPVTISFANHTSCRCMSKLD")
"no binding"
>>> observed_result("13-5 (ligand) GQNHHEVVKFMDVYQRSYCHPIETLVDIFQEYPDEIEYIFKPPCVSVYRCGGCCNDEGLECVPTEESNITMQIMRIKPHQGQHIGEMSFANHTSCRCMSKLD")
"binds"
